# target.of.assay: Epidermal growth factor receptor (Homo sapiens, UniProt P00533, L858R/T790M)
# Sequence (P00533 25-1210 T790M/L858R limits assumed): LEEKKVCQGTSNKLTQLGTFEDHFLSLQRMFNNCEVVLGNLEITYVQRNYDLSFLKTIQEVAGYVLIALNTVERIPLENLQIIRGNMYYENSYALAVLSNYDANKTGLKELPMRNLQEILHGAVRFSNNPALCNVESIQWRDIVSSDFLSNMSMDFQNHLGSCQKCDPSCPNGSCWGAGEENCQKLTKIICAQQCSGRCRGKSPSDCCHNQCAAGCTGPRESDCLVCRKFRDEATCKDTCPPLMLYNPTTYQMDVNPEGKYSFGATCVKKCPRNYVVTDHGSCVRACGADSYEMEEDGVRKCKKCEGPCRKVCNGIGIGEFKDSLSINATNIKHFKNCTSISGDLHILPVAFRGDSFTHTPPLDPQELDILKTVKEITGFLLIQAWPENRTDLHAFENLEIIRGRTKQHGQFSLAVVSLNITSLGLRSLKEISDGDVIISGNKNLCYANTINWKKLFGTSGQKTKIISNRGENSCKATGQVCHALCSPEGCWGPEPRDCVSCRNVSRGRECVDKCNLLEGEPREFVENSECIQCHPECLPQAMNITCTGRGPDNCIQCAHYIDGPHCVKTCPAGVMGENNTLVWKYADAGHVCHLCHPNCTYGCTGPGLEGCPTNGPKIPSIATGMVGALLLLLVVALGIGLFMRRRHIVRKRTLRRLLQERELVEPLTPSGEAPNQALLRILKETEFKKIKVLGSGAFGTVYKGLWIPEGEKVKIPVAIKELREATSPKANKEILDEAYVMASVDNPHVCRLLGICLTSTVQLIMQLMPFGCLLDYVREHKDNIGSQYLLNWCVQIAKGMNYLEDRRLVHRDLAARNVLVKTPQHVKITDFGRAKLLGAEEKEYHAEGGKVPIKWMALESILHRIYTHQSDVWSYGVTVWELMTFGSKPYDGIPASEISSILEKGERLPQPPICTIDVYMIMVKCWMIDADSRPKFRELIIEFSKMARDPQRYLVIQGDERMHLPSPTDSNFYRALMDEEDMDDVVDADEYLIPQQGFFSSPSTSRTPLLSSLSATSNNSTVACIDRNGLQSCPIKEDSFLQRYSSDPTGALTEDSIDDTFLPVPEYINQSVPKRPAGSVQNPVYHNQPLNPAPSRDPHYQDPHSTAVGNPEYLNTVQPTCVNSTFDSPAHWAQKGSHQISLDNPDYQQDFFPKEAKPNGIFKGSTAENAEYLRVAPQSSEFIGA
# assay.notes: Inhibition of EGFR L858R/T790M (unknown origin)
pIC50: −log10 of the molar value.
Parameter pIC50: see the listing below.

Qu. Bench note: what pIC50 did C=CC(=O)Nc1cc(Nc2nccc(-c3cn(C)c4ccccc34)n2)c(OC)cc1N(C)CCN(C)Cc1ccc(Br)cc1 show?
Ans. 8.09

Continuing:
Qu. Bench note: what pIC50 did COc1cc(N(C)CCN(C)C)c(NC(=O)c2ccncc2OC)cc1Nc1nccc(-c2cn(C)c3ccccc23)n1 show?
Ans. < 6.30

Qu. Bench note: what pIC50 did COc1cc(N(C)CCN(C)C)c(NC(=O)c2ncccn2)cc1Nc1nccc(-c2cn(C)c3ccccc23)n1 show?
Ans. < 6.30

Qu. Bench note: what pIC50 did COc1cc(N(C)CCN(C)C)c(NC(=O)c2cnccn2)cc1Nc1nccc(-c2cn(C)c3ccccc23)n1 show?
Ans. < 6.30

====

Parameter log10 of IC50: see the listing below.
# target.of.assay: Epidermal growth factor receptor (Homo sapiens, UniProt P00533, L858R/T790M)
# assay.notes: Inhibition of EGFR L858R/T790M (unknown origin)
// stored as log10 of IC50 expressed in nM

Solved cases below.
Qu. Bench note: what log10 of IC50 did C=CC(=O)Nc1cc(Nc2nccc(Nc3cnn(CC)c3)n2)c(OC)cc1N(C)CCN(C)C show?
Ans. 0.90

Qu. Bench note: what log10 of IC50 did C=CC(=O)Nc1cc(Nc2nccc(-c3cn(C)c4ccccc34)n2)c(OC)cc1N(C)CCN(C)C(=O)c1ccc(Br)cc1 show?
Ans. 1.10

Qu. Bench note: what log10 of IC50 did C=CC(=O)Nc1cc(Nc2nccc(Nc3ccn(C)n3)n2)c(OC)cc1N(C)CCN(C)C show?
Ans. 0.79

Qu. Bench note: what log10 of IC50 did C=CC(=O)Nc1cc(Nc2nccc(-c3cn(C)c4ccccc34)n2)c(OC)cc1N(C)CCN(C)CC(=O)OC show?
Ans. 0.76

Pending molecule:
Qu. Bench note: what log10 of IC50 did COc1cc(N(C)CCN(C)C)c(NC(=O)c2ccncn2)cc1Nc1nccc(-c2cn(C)c3ccccc23)n1 show?
Ans. 2.38

====

Parameter IC50: see the listing below.
# target.of.assay: Epidermal growth factor receptor (Homo sapiens, UniProt P00533, L858R/T790M)
# assay.notes: Inhibition of EGFR L858R/T790M (unknown origin)
Express the result in nM but write the number alone.

Solved cases below.
Qu. Recorded IC50 for COc1cc(N(C)CCN(C)C)c(NC(=O)c2ccnc(Cl)c2)cc1Nc1nccc(-c2cn(C)c3ccccc23)n1 with Epidermal growth factor receptor (Homo sapiens, UniProt P00533, L858R/T790M), please?
Ans. 420

Qu. Recorded IC50 for COc1cc(N(C)CCN(C)C)c(NC(=O)c2ccncn2)cc1Nc1nccc(-c2cn(CCCO)c3ccccc23)n1 with Epidermal growth factor receptor (Homo sapiens, UniProt P00533, L858R/T790M), please?
Ans. 161

Continuing:
Qu. Recorded IC50 for C=CCCN(C)CCN(C)c1cc(OC)c(Nc2nccc(-c3cn(C)c4ccccc34)n2)cc1NC(=O)C=C with Epidermal growth factor receptor (Homo sapiens, UniProt P00533, L858R/T790M), please?
Ans. 2
